TGI values by entry
test system: UO-31 renal; assay: NCI tumour cell line growth inhibition, 48 h

{"MOLECULE": "O=C(O)c1cccc(N=Nc2c(S(=O)(=O)O)ccc3c2C(=O)c2ccccc2C3=O)c1O", "UNITS_TEXT": "µM", "QUALIFIER_SYMBOL": ">", "TGI": 100}
{"MOLECULE": "C[C@@H](CO)[C@@H]1CCC=C2CC[C@]3(C)[C@H](CC[C@@H]4[C@@]5(C)CCCNC(C)(C)[C@@H]5CC[C@]43C)[C@H]21", "UNITS_TEXT": "µM", "QUALIFIER_SYMBOL": "=", "TGI": 6.8}
{"MOLECULE": "Fc1ccccc1C1CC(c2ccc3ccccc3c2)=Nc2ccccc2S1 (centres undefined)", "UNITS_TEXT": "µM", "QUALIFIER_SYMBOL": ">", "TGI": 100}
{"MOLECULE": "CN1CCC(CN2c3ccccc3Sc3ccccc32)CC1", "UNITS_TEXT": "µM", "QUALIFIER_SYMBOL": "=", "TGI": 21.8}
